target: NS3 protease domain complexed to a modified form of the NS4A peptide (Pep4AK) (Hepatitis C virus genotype 1b, UniProt P26663); construct: NS3 protease domain (residues 1027–1206 of the HCV polyprotein); experiment: HCV NS3 protease domain/NS4A cofactor peptide assay (Assay B); format: biochemical; details: NS3 protease domain/NS4A cofactor peptide assay; read-out: Assay B (IC50 class)
Sequence (P26663 1027-1206, other chains not shown): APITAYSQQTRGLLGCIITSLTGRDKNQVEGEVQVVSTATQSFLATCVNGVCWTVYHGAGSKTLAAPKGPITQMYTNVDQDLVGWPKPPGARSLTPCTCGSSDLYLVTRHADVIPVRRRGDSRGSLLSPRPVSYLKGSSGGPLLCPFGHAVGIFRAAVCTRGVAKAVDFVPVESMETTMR
experimental.readout: IC50

compound	IC50
CC(C)C[C@H](NC(=O)C1(Cc2ccsc2C(=O)O)CCc2ccccc2N1)C(=O)N[C@@H](CC(F)F)C(=O)NCCc1c(F)cc(C(=O)O)cc1F (single isomer, unassigned) [Compound 713]	< 100 µM
CC(C)CC(NC(=O)c1ccccc1-c1ccccc1C(=O)O)C(=O)NC(CS)C(=O)NCCc1ccccc1Cl (stereo not drawn) [Compound 716]	< 100 µM

Lab note: CC(C)CC(NC(=O)c1ccccc1-c1ccccc1C(=O)O)C(=O)NC(CC(F)F)C(=O)NCCc1ccc(C(=O)O)cc1Cl (stereo not drawn) [Compound 715] gave IC50 of < 100 µM
